Origin of the recorded values: BindingDB's records for patent US10065950

target: Gag-Pol polyprotein (Human immunodeficiency virus type 1 group M subtype B (isolate NY5)); assay: HIV Integrase Inhibitory Assay; conditions: 25 °C
MEASURE NAME: IC50
Your answer should be a number followed by the unit of measure.

Some compounds with known IC50 results, for comparison:
RECORD SMILES: CCOC[C@@H]1Cn2cc(-c3nnc(Cc4ccc(F)cc4)s3)c(=O)c(O)c2C(=O)N1CC
IC50: 6.4 nM
--
RECORD SMILES: CCN1C(=O)c2c(O)c(=O)c(-c3nnc(Cc4ccc(F)cc4)s3)cn2C[C@H]1COC
IC50: 9.1 nM
--
RECORD SMILES: CC(C)N1C(=O)c2c(O)c(=O)c(-c3nnc(Cc4ccc(F)cc4)s3)cn2C[C@H]1C
IC50: 5.6 nM

Please examine the following record next.
input: Indicate the recorded IC50 value for this compound: CCOC[C@@H]1Cn2cc(-c3nnc(Cc4ccc(F)cc4)s3)c(=O)c(O)c2C(=O)N1C(C)C
output: 7.3 nM

###

# pIC50 per entry
biological target: Gag-Pol polyprotein (Human immunodeficiency virus type 1 group M subtype B (isolate NY5), UniProt P12497); test: HIV Integrase Inhibitory Assay; conditions: 25 °C
Quick note: pIC50 values are minus log10 of concentrations in mol/L.

RECORD SMILES: CCN1C[C@](C)(C(=O)N2CCC2)n2cc(-c3ncc(Cc4ccc(F)cc4)s3)c(=O)c(O)c2C1=O
pIC50: 8.10

RECORD SMILES: CCN1C(=O)c2c(O)c(=O)c(-c3nnc(Cc4ccc(F)cc4)s3)cn2[C@@H](C)[C@H]1COC
pIC50: 8.00

RECORD SMILES: COC[C@@H]1Cn2cc(-c3nnc(Cc4ccc(F)cc4)s3)c(=O)c(O)c2C(=O)N1C(C)C
pIC50: 8.07

RECORD SMILES: CCOC[C@@H]1Cn2cc(-c3nnc(Cc4ccc(F)cc4)s3)c(=O)c(O)c2C(=O)N1CC1CC1
pIC50: 8.19

RECORD SMILES: CC(C)N1C[C@H](C)n2cc(-c3nnc(Cc4ccc(F)cc4)s3)c(=O)c(O)c2C1=O
pIC50: 8.13

RECORD SMILES: COC[C@H]1CN(C(C)C)C(=O)c2c(O)c(=O)c(-c3nnc(Cc4ccc(F)cc4)s3)cn21
pIC50: 8.00

input: Indicate the recorded pIC50 value for this compound: COC[C@@H]1Cn2cc(-c3nnc(Cc4ccc(F)cc4)s3)c(=O)c(O)c2C(=O)N1CC1CC1
output: 8.06

input: Indicate the recorded pIC50 value for this compound: COCCOC[C@H]1CN(C2CC2)C(=O)c2c(O)c(=O)c(-c3nnc(Cc4ccc(F)cc4)s3)cn21
output: 7.70

input: Indicate the recorded pIC50 value for this compound: COCCOC[C@H]1CN(C(C)C)C(=O)c2c(O)c(=O)c(-c3nnc(Cc4ccc(F)cc4)s3)cn21
output: 7.89
